Give solubility kinetic at 1 h, 100 µM for every item shown.
- assayText: Kinetic solubility of the compound in PBS at pH 7.4 at 100 uM incubated for 1 hr by LCMS/MS analysis
- Assay type: physicochemical
- conditionInfo: read-out: Kinetic_solubility
Respond numerically; units are µM and should not be typed.

Report solubility kinetic at 1 h, 100 µM for CNc1cc(N2CC3(CN(c4ccc(CN5CCC(C)(C)CC5)cc4)CC(=O)N3)C2)ncn1 please.
86

I am curious: what solubility kinetic at 1 h, 100 µM value has been reported for CC1(C)CCN(Cc2ccc(N3CC(=O)NC4(CCN(c5nc(Cl)nc6[nH]ccc56)CC4)C3)cc2)CC1 ?
45

The reported measurements were obtained from ChEMBL document CHEMBL5053501.
